# systemName: ENPP1 on MDA-MB-231 cells (Homo sapiens (Human), UniProt P22413)
# Sequence (P22413 whole entry): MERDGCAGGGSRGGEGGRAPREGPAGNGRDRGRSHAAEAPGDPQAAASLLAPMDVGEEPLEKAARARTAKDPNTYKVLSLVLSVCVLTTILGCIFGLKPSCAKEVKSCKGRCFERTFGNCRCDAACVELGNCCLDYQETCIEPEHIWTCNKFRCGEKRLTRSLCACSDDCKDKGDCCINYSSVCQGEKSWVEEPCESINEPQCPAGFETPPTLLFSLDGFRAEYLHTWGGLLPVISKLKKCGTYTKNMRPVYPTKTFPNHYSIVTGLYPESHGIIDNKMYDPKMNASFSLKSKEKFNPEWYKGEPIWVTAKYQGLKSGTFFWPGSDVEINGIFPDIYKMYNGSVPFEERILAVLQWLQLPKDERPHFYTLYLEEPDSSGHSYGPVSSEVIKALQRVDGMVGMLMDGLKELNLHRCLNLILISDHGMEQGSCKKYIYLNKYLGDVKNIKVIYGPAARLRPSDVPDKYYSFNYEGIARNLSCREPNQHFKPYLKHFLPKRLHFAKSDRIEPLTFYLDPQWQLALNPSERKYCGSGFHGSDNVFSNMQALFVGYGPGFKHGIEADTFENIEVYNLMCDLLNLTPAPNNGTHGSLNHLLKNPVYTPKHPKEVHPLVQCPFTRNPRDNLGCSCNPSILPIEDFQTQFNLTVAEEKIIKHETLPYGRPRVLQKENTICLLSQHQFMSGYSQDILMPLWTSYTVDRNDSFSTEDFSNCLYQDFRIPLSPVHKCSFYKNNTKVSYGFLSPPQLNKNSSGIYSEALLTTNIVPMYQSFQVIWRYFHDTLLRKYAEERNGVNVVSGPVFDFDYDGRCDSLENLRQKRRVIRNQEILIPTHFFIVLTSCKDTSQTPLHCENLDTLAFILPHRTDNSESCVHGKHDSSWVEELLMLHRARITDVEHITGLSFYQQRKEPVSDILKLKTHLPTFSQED
# protocolSummary: Inhibition of ENPP1 hydrolysis of AMP p-nitrophenyl ester on MDA-MB-231 cells (Assay 2)
# Type: cell-based
# recordedConditions: pNP-AMP 0.25 mM, MDA-MB-231 cells, 37° C. 3 h, KI,app from IC50 via Cheng/Prusoff; read-out: Assay 2 KI,app values (class)
For each record, write down the corresponding Ki.

Look over these answered cases.
Cc1nc2ncnn2c(N2CCCCC2)c1Cc1ccc(S(C)(=N)=O)cc1 (centres unmarked): > 10 nM
COCCS(=N)(=O)c1ccc(Cc2c(C)nc3ncnn3c2N(C)C)cc1 (centres unmarked): < 10 nM
CCc1nc2ncnn2c(N2CCCC2)c1Cc1ccc(S(C)(=N)=O)cc1 (centres unmarked): > 10 nM
[2H]C([2H])([2H])N(c1c(Cc2ccc(S(C)(=N)=O)cc2)c(C)nc2ncnn12)C([2H])([2H])[2H] (centres unmarked): < 10 nM
CS(=N)(=O)c1ccc(Cc2c(Cl)nc3ncnn3c2N2CCCC2)cc1 (centres unmarked): > 10 nM
Cc1nc2ncnn2c(N(C)C)c1Cc1ccc(P(=O)(O)O)cc1: < 10 nM
Cc1nc2ncnn2c(N(C)C)c1Cc1ccc(S(=N)(=O)CCN)cc1 (centres unmarked): < 10 nM

*Q* What Ki value was documented for this compound, Cc1c(Cc2ccc([S@@](C)(=N)=O)cc2)c(N(C)C)n2ccnc2c1C#N [Compound 80a] ?
*A* < 10 nM

###

# systemName: ENPP-1 ECD (Homo sapiens (Human), UniProt P22413)
# protocolSummary: Inhibition of ENPP1 hydrolysis of 2′,3′-cGAMP (Assay 1)
readoutKind: Ki (nM)
Answers are plain numbers, in nM.

*Q* Data request, read-out Ki, for "Cc1nc2ncnn2c(N(C)C)c1Cc1cccc(N)c1"
*A* 110

###

# systemName: ENPP-1 ECD (Homo sapiens (Human))
# protocolSummary: Inhibition of ENPP1 hydrolysis of 2′,3′-cGAMP (Assay 1)
# recordedConditions: Assay 1 KI values (class), 2,3-cGAMP 24 μM, AMP-Glo luminescence, KI from IC50 via Cheng/Prusoff
readoutKind: Ki

Below, each entry is followed by its recorded Ki result.
Cc1nc2ncnn2c(N(C)C)c1Cc1ccc(S(=N)(=O)Cc2ccccc2)cc1 (stereo not drawn): < 3 nM
Cc1nc2ncnn2c(N2CCCCC2)c1Cc1ccc(S(C)(=N)=O)cc1 (stereo not drawn): < 3 nM
Cc1nc2ncnn2c(N(C)C)c1Cc1ccc(S(N)(=O)=O)cc1: < 3 nM
Cc1nc2ncnn2c(N2CC3CC(C3)C2)c1Cc1ccc(S(C)(=N)=O)cc1 (stereo not drawn): 3 to 300 nM
CN(C)c1c(Cc2ccc(S(C)(=N)=O)cc2)c(C(F)(F)F)nc2ncnn12 (stereo not drawn): 3 to 300 nM
CN(C)c1c(Cc2ccc(S(C)(=N)=O)cc2)c(C2CC2)nc2ncnn12 (stereo not drawn): < 3 nM
[2H]C([2H])([2H])N(c1c(Cc2ccc(S(C)(=N)=O)cc2)c(C)nc2ncnn12)C([2H])([2H])[2H] (stereo not drawn): < 3 nM
Cc1nc2ncnn2c(N2CC(F)(F)C2)c1Cc1ccc(S(C)(=N)=O)cc1 (stereo not drawn): 3 to 300 nM

Quick batch: Ki for everything below.
1. Cc1nc2ncnn2c(N2CC3CC3C2)c1Cc1ccc(S(C)(=N)=O)cc1 (stereo not drawn)
2. Cc1nc2ncnn2c(N(C)C)c1-c1ccc2c(c1)CCN(S(N)(=O)=O)C2
3. Cc1nc2ncnn2c(N(C)C)c1-c1ccc(CCS(C)(=N)=O)cc1 (stereo not drawn)
4. CS(=N)(=O)Cc1ccc(-c2cnc3ncnn3c2)cc1 (stereo not drawn)
5. Cc1cc2ncnn2c(N2CCCCC2)c1Cc1ccc(S(C)(=N)=O)cc1 (stereo not drawn)

*A*
1: < 3 nM; 2: > 300 nM; 3: 3 to 300 nM; 4: > 300 nM; 5: < 3 nM

Hi, could you look up Ki for each item in my list?
1. CCN(C)c1c(Cc2ccc(S(C)(=N)=O)cc2)c(C)nc2ncnn12 (stereo not drawn)
2. Cc1nc2ncnn2c(N2CCC2)c1Cc1ccc(S(C)(=N)=O)cc1 (stereo not drawn)
3. COCCS(=N)(=O)c1ccc(Cc2c(C)nc3ncnn3c2N(C)C)cc1 (stereo not drawn)
4. CN(C)c1c(Cc2ccc(S(C)(=N)=O)cc2)c(C#N)nc2ncnn12 (stereo not drawn)
5. Cc1nc2ncnn2c(N2CCCC2)c1Cc1ccc(S(C)(=N)=O)cc1 (stereo not drawn)

*A*
< 3 nM
3 to 300 nM
< 3 nM
< 3 nM
< 3 nM

###

# systemName: ENPP-1 ECD (Homo sapiens (Human))
# protocolSummary: Inhibition of ENPP1 hydrolysis of 2′,3′-cGAMP (Assay 1)
# recordedConditions: read-out: Assay 1 KI; 2,3-cGAMP 24 μM, AMP-Glo luminescence, KI from IC50 via Cheng/Prusoff
readoutKind: pKi
Give bare numbers, as −log10 of the molar value.

// for each compound in input: emit pKi
1. Cc1nc2ncnn2c(N2CC(F)(F)C2)c1Cc1ccc(S(C)(=N)=O)cc1 (centres unmarked) [Compound 41]
2. CN(C)c1c(Cc2ccc(S(C)(=N)=O)cc2)c(C#N)nc2ncnn12 (centres unmarked) [Compound 79]
3. Cc1nc2ncnn2c(N(C)C)c1Cc1cccc(S(C)(=N)=O)c1 (centres unmarked) [Compound 4]
4. Cc1nc2ncnn2c(N2CCCC2)c1Cc1ccc([S@@](C)(=N)=O)cc1 (single isomer, unassigned) [Compound 8b]
5. CCN(C)c1c(Cc2ccc(S(C)(=N)=O)cc2)c(C)nc2ncnn12 (centres unmarked) [Compound 12]
6. Cc1nc2ncnn2c(N2CCCC2)c1Cc1ccc(S(N)(=O)=O)cc1 [Compound 9]
7. Cc1nc2nccn2c(N(C)C)c1Cc1ccc([S@](C)(=N)=O)cc1 [Compound 29a]

*A*
1: 7.97; 2: 8.54; 3: 6.27; 4: 7.87; 5: 9.32; 6: 9.24; 7: 9.97

# map each compound to its pKi
1. Cc1nc2nccn2c(N2CCCCC2)c1Cc1ccc(S(C)(=N)=O)cc1 (centres unmarked) [Compound 83]
2. Cc1nc2ncnn2c(N2C3CCCC2CC3)c1Cc1ccc(S(C)(=N)=O)cc1 (centres unmarked) [Compound 47]
3. COc1nc2ncnn2c(N(C)C)c1Cc1ccc([S@@](C)(=N)=O)cc1 [Compound 88a]
4. Cc1c(Cc2ccc([S@](C)(=N)=O)cc2)c(N(C)C)n2ncnc2c1C#N (single isomer, unassigned) [Compound 85b]
5. Cc1cc2ncnn2c(N(C)C)c1Cc1ccc([S@](C)(=N)=O)cc1 (single isomer, unassigned) [Compound 28a]
6. CN(C)c1c(Cc2ccc(S(C)(=N)=O)cc2)c(C(F)(F)F)nc2ncnn12 (centres unmarked) [Compound 51]
7. CN(C)c1c(Cc2ccc([S@@](C)(=N)=O)cc2)c(Cl)nc2ncnn12 [Compound 74a]

*A*
10.01
7.29
11.23
7.95
11.09
8.25
10.28

Take each entry in turn and give its pKi.
1. Cc1c(Cc2ccc([S@](C)(=N)=O)cc2)c(N(C)C)n2ccnc2c1C#N [Compound 80b]
2. Cc1nc2ncnn2c(N(C)C)c1Cc1cccc(S(N)(=O)=O)c1 [Compound 65]

*A*
[7.37, 6.74]

###

I'd be grateful if you could share measured Ki for these entries.
# systemName: ENPP1 on MDA-MB-231 cells (Homo sapiens (Human))
# protocolSummary: Inhibition of ENPP1 hydrolysis of AMP p-nitrophenyl ester on MDA-MB-231 cells (Assay 2)
# Assay type: cell-based
# recordedConditions: pNP-AMP 0.25 mM, MDA-MB-231 cells, 37° C. 3 h, KI,app from IC50 via Cheng/Prusoff; read-out: Assay 2 KI, app
Give bare numbers, in nM.

Observe how each entry below is paired with its result.
CS(=N)(=O)c1ccc(Cc2cnc3ncnn3c2N2CCCC2)cc1 (stereo not drawn): 74.7
Cc1nc2ncnn2c(N2CCCC2)c1Cc1ccc(P(=O)(O)O)cc1: 5.68
CN(C)c1c(Cc2ccc(S(C)(=N)=O)cc2)c(C#N)nc2ncnn12 (stereo not drawn): 74.4
CN(C)c1c(Cc2ccc(S(C)(=N)=O)cc2)c(Cl)nc2ncnn12 (stereo not drawn): 7.13
Cc1nc2ncnn2c(N(C)C)c1Cc1ccc(S(=N)(=O)Cc2ccccc2)cc1 (stereo not drawn): 1.65

Batch request: Ki per item, same order as input.
1. Cc1c(Cc2ccc([S@@](C)(=N)=O)cc2)c(N(C)C)n2ccnc2c1C#N [Compound 80a]
2. Cc1nc2ncnn2c(N(C)C)c1Cc1ccc(S(=N)(=O)CCN)cc1 (stereo not drawn)
3. Cc1nc2ncnn2c(N(C)C)c1Cc1ccc(S(=N)(=O)CCO)cc1 (stereo not drawn)
4. Cc1nc2ncnn2c(N2CCCCC2)c1Cc1ccc([S@](C)(=N)=O)cc1 [Compound 16a]

*A*
1: 0.589; 2: 7.7; 3: 11.5; 4: 11.9

Provenance of the data: patent US20240376113A1
